# PROCEDURE_SUMMARY: Protein binding in 10% fetal bovine serum at 1 uM after 4 hrs in presence of cell culture medium by rapid equilibrium dialysis based LC-MS/MS analysis
# Assay type: ADME, cell-free, Bos taurus
# STATED_CONDITIONS: cattle, 10% fetal bovine serum in cell culture medium; read-out: PB (converted)
PROPERTY_LABEL: fraction unbound at 4 h, 1 µM
Answer with the value's number alone.

Would you please look over these solved cases?
INSERT INTO assay_data (smiles_notation, property_label, recorded_number) VALUES
  ('CCC[C@H](C)[C@H]1OC(=O)[C@@H](C)N(C)C(=O)[C@H]([C@@H](C)CC)NC(=O)CN(C)C(=O)[C@@H](Cc2ccccc2)N(C)C(=O)[C@H](C)NC(=O)[C@@H]([C@@H](C)CC)OC(=O)/C(C)=C/C[C@H](O)[C@@H]1C', 'fraction unbound at 4 h, 1 µM', 0.145),
  ('CCC[C@H](C)[C@H]1OC(=O)[C@H](C)N(C)C(=O)[C@H]([C@@H](C)CC)NC(=O)CN(C)C(=O)[C@@H](Cc2ccccc2)N(C)C(=O)[C@H](C)NC(=O)[C@@H]([C@@H](C)CC)OC(=O)/C(C)=C/C[C@H](O)[C@@H]1C', 'fraction unbound at 4 h, 1 µM', 0.241);

Note to self: fraction unbound at 4 h, 1 µM recorded for "CCC[C@H](C)[C@H]1OC(=O)[C@H](C)N(C)C(=O)[C@H]([C@@H](C)CC)NC(=O)CN(C)C(=O)[C@@H](Cc2ccccc2)N(C)C(=O)[C@H](C)NC(=O)[C@@H]([C@@H](C)CC)OC(=O)/C(C)=C/C[C@H](OC)[C@@H]1C" was 0.028
